Quick reference: Mean (compound concentration) of the listed items.
- testSummary: Plasma stability, human plasma
- experimentalContext: human plasma, 37° C., timepoint 0 h
Bridge positions count the residues as written; N and C are the ends. Peptide text beside a SMILES is read from it.
valueType: Mean (compound concentration)

[[record]]
compound = "CC(=O)N[C@@H](CO)C(=O)N[C@@H](CCCNC(=N)N)C(=O)N[C@@H](CC(C)C)C(=O)N[C@@H](CCC(=O)O)C(=O)N[C@H]1CCC(=O)NCCCC[C@@H](C(=O)N[C@@H](CCCNC(=N)N)C(=O)N[C@@H](CC(C)C)C(=O)N[C@H](C(=O)N[C@@H](CCC(=O)O)C(N)=O)[C@@H](C)O)NC(=O)[C@H](CCCNC(=N)N)NC(=O)[C@H](CC(C)C)NC(=O)[C@H](CCC(=O)O)NC1=O [SD15194] (Ac-SRLEEELRKRLTE-NH2; lactam 5-9)"
measurement = 2.26

[[record]]
compound = "CC(=O)N1CCC[C@H]1C(=O)N[C@@H](CO)C(=O)N[C@@H](CCCNC(=N)N)C(=O)N[C@@H](CC(C)C)C(=O)N[C@H]1CCC(=O)NCCCC[C@@H](C(=O)N[C@@H](CCCNC(=N)N)C(=O)N[C@@H](CCCNC(=N)N)C(=O)N[C@@H](CC(C)C)C(=O)N[C@H](C(=O)N[C@@H](CCC(=O)O)C(N)=O)[C@@H](C)O)NC(=O)[C@H](CC(C)C)NC(=O)[C@H](CCC(=O)O)NC(=O)[C@H](CCC(=O)O)NC1=O [SD15806] (Ac-PSRLEEELKRRLTE-NH2; lactam 5-9)"
measurement = 3.040

[[record]]
compound = "CC(=O)N1CCC[C@H]1C(=O)N[C@@H](CO)C(=O)N[C@@H](CCCNC(=N)N)C(=O)N[C@@H](CC(C)C)C(=O)N[C@@H](CCC(=O)O)C(=O)N[C@H]1CCCCNC(=O)CC[C@@H](C(=O)N[C@@H](CCCNC(=N)N)C(=O)N[C@@H](CC(C)C)C(=O)N[C@H](C(=O)N[C@@H](CCC(=O)O)C(N)=O)[C@@H](C)O)NC(=O)[C@H](CCCNC(=N)N)NC(=O)[C@H](CC(C)C)NC(=O)[C@H](CCC(=O)O)NC1=O [SD15805] (Ac-PSRLEKELRERLTE-NH2; lactam 6-10)"
measurement = 2.836

[[record]]
compound = "CC(=O)N[C@@H](CO)C(=O)N[C@@H](CCCNC(=N)N)C(=O)N[C@@H](CC(C)C)C(=O)N[C@@H](CCC(=O)O)C(=O)N[C@H]1CC(=O)NCCCC[C@@H](C(=O)N[C@@H](CCCNC(=N)N)C(=O)N[C@@H](CC(C)C)C(=O)N[C@H](C(=O)N[C@@H](CCC(=O)O)C(N)=O)[C@@H](C)O)NC(=O)[C@H](CCCNC(=N)N)NC(=O)[C@H](CC(C)C)NC(=O)[C@H](CCC(=O)O)NC1=O [SD15196] (Ac-SRLEDELRKRLTE-NH2; lactam 5-9)"
measurement = 2.42

[[record]]
compound = "CC(=O)N[C@@H](CO)C(=O)N[C@@H](CCCNC(=N)N)C(=O)N[C@@H](CC(C)C)C(=O)N[C@@H](CCC(=O)O)C(=O)N[C@H]1CCC(=O)NCCCC[C@@H](C(=O)N[C@@H](CCCNC(=N)N)C(=O)N[C@@H](CCCNC(=N)N)C(=O)N[C@@H](CC(C)C)C(=O)N[C@H](C(=O)N[C@@H](CCC(=O)O)C(N)=O)[C@@H](C)O)NC(=O)[C@H](CC(C)C)NC(=O)[C@H](CCC(=O)O)NC1=O [SD15192] (Ac-SRLEEELKRRLTE-NH2; lactam 5-8)"
measurement = 2.56

